# Test system: HT29 colon
# Measurement Description: NCI tumour cell line growth inhibition, 48 h
Please provide measured TGI for the entries that follow.

Report TGI for every entry below.
1. ClC(=Nc1cccc2ccccc12)N(c1ccccc1)c1ccccc1
2. O=C1CC2CC=C[C@H]3c4cc5c(cc4C(=O)N1C23)OCO5 (stereo partly specified)
3. S=C(NNC1=NCCCN1)Nc1ccccc1
4. O=c1c(Cl)nnc2sc3ccccc3n12
5. Cc1ccc(-c2sc(-c3ccc(C)cc3)c3c2C2CCC3C2)cc1
6. COc1cc(N(CCC#N)CCC#N)ccc1/C(N=Nc1ccc(C)cc1)=N/NC(=O)c1cc(Br)ccc1O

Key:
1: > 100 µM; 2: > 50 µM; 3: > 100 µM; 4: > 100 µM; 5: > 50 µM; 6: > 100 µM
